Measured values drawn from the supplement of paper PMC11619387 for this set.

System: Pseudomonas aeruginosa PAO1-Xen41
protocol.summary: Emax, maximal drug effect on net growth rate (fitted lower asymptote) (per hour (slope of log luminescence)); higher = weaker maximal killing (less negative)
cond: medium (conditioned by secondary species or non-conditioned control): MH broth
observable: Emax
# output: bare number, no unit

Query string: Entry under review: CCC(C)CCCC(=O)N[C@@H](CCN)C(=O)N[C@H](C(=O)N[C@@H](CCN)C(=O)N[C@H]1CCNC(=O)[C@H]([C@@H](C)O)NC(=O)[C@H](CCN)NC(=O)[C@H](CCN)NC(=O)[C@H](CC(C)C)NC(=O)[C@@H](CC(C)C)NC(=O)[C@H](CCN)NC1=O)[C@@H](C)O (some centres undefined) . Reported Emax?
Result string: -0.963

Query string: Entry under review: O=C(O)c1cn(C2CC2)c2cc(N3CCNCC3)c(F)cc2c1=O . Reported Emax?
Result string: -0.125

Query string: Entry under review: C[C@H]1[C@H](NC(=O)/C(=N\OC(C)(C)C(=O)O)c2csc(N)n2)C(=O)N1S(=O)(=O)O . Reported Emax?
Result string: -0.0757

Query string: Entry under review: NC[C@H]1O[C@H](O[C@H]2[C@H](O)[C@@H](O[C@H]3O[C@H](CO)[C@@H](O)[C@H](N)[C@H]3O)[C@H](N)C[C@@H]2N)[C@H](N)C[C@@H]1O . Reported Emax?
Result string: -0.122

Query string: Entry under review: CN(C)c1ccc(O)c2c1C[C@H]1C[C@H]3[C@H](N(C)C)C(O)=C(C(N)=O)C(=O)[C@@]3(O)C(O)=C1C2=O . Reported Emax?
Result string: -0.41

Query string: Entry under review: CC(C)(O/N=C(\C(=O)N[C@@H]1C(=O)N2C(C(=O)[O-])=C(C[n+]3ccccc3)CS[C@H]12)c1csc(N)n1)C(=O)O . Reported Emax?
Result string: -0.0573

Query string: Entry under review: C[C@@H](O)[C@H]1C(=O)N2C(C(=O)O)=C(S[C@@H]3CN[C@H](C(=O)N(C)C)C3)[C@H](C)[C@H]12 . Reported Emax?
Result string: -0.0947

Query string: Entry under review: CO[C@H]1/C=C/O[C@@]2(C)Oc3c(C)c(O)c4c(O)c(c(/C=N/N5CCN(C)CC5)c(O)c4c3C2=O)NC(=O)/C(C)=C\C=C\[C@H](C)[C@H](O)[C@@H](C)[C@@H](O)[C@@H](C)[C@H](OC(C)=O)[C@@H]1C . Reported Emax?
Result string: -0.425

Query string: Entry under review: C[C@@H]1O[C@@H]1P(=O)(O)O . Reported Emax?
Result string: -0.173

----------
Tested on: Pseudomonas aeruginosa PAO1-Xen41
protocol.summary: EC50 of growth/kill rate concentration-effect curve
cond: medium (conditioned by secondary species or non-conditioned control): H. influenzae
For each record, write down the corresponding EC50.
Unit µg/mL implied. Number only.

Query string: Entry under review: NC[C@H]1O[C@H](O[C@H]2[C@H](O)[C@@H](O[C@H]3O[C@H](CO)[C@@H](O)[C@H](N)[C@H]3O)[C@H](N)C[C@@H]2N)[C@H](N)C[C@@H]1O . Reported EC50?
Result string: 0.185

Query string: Entry under review: O=C(O)c1cn(C2CC2)c2cc(N3CCNCC3)c(F)cc2c1=O . Reported EC50?
Result string: 0.0686

Query string: Entry under review: C[C@@H](O)[C@H]1C(=O)N2C(C(=O)O)=C(S[C@@H]3CN[C@H](C(=O)N(C)C)C3)[C@H](C)[C@H]12 . Reported EC50?
Result string: 0.626
